Recorded values, source patent US20070117743A1.

System: IGROV-ET
Assay: SRB colorimetric assay of cell growth and viability, IGROV-ET
Type: cell-based, human
Settings: 48 hours exposure
Where a SMILES comes first, the peptide text is derived from it. Bridges are numbered along the chain shown (N, C = ends). [ ]: non-standard residue; d: D form. The star is where a group is joined. d(aIle) = CC[C@H](C)[C@@H](N)C(=O)O; d(aThr) = C[C@@H](O)[C@@H](N)C(=O)O; Hexanoyl(5-Me) = CC(C)CCCC(=O)*; Orn = NCCC[C@H](N)C(=O)O; Aib = CC(C)(N)C(=O)O
A collection of compounds and their measured GI50
Just the number in nM, nothing appended.

I would be grateful if you could share the reported GI50 for CC[C@H](C)[C@@H](NC(=O)[C@H](CCCN)NC(=O)[C@H]1CCCN1C(=O)[C@H](NC(=O)[C@@H](NC(=O)[C@@H](NC(=O)[C@H](NC(=O)CCCC(C)C)C(C)C)[C@@H](C)O)C(C)C)C(C)C)C(=O)N[C@H]1C(=O)N[C@H]([C@@H](C)CC)C(=O)N[C@H](C(C)C)C(=O)N[C@@H](Cc2ccccc2)C(=O)NC(C)(C)C(=O)N[C@@H](C(C)C)C(=O)O[C@@H]1C [Compound 66, [Aib^2]-KF] ({Hexanoyl(5-Me)}-[dV]TV[dV][dP][Orn][d(aIle)][d(aThr)][d(aIle)][dV]F[Aib]V; ester 8-C) . 1210

Which GI50 value is on record for C/C=C1\NC(=O)[C@H](Cc2ccccc2)NC(=O)[C@@H](C(C)C)NC(=O)[C@@H]([C@@H](C)CC)NC(=O)[C@H](NC(=O)[C@H](NC(=O)[C@H](CCCN)NC(=O)[C@H]2CCCN2C(=O)[C@H](NC(=O)[C@@H](NC(=O)[C@@H](NC(=O)[C@H](NC(=O)c2ccccc2)C(C)C)[C@@H](C)O)C(C)C)C(C)C)[C@@H](C)CC)[C@@H](C)OC(=O)[C@H](C(C)C)NC1=O [Compound 20, [Bza^14]-KF] ? 755
